Answer each item with its documented composite z-score.
System: Sam68 (KHDRBS1)
Assay Details: Sam68 small-molecule binders, primary screen, biochemical, small-molecule microarray, 635 nm fluorescence (AID 1125);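 further: score merges 667 nm channel intensity with signal to noise over triplicate slides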
Conditions Used: small-molecule microarray binding, higher = more signal
// print number alone

[ask] Which composite z-score is reported for this compound? `COC(=O)[C@@]1(Cc2ccccc2)[C@H]2c3cc(C(=O)N(C)C)n(Cc4ccc(Cl)c(C(F)(F)F)c4)c3C[C@H]2CN1C(=O)c1ccccc1`
[reply] 1.2

[ask] Which composite z-score is reported for this compound? `Cc1c(NC(=O)/C(C#N)=C/C=C/c2ccc([N+](=O)[O-])cc2)c(=O)n(-c2ccccc2)n1C`
[reply] 1.3

[ask] Which composite z-score is reported for this compound? `O=C1O[C@H](c2ccccc2)[C@H](c2ccccc2)N2[C@H]1[C@@H](C(=O)O)[C@]1(C(=O)Nc3ccccc31)[C@H]2c1ccc(OCCO)cc1`
[reply] 1.16

[ask] Which composite z-score is reported for this compound? `COC(=O)C(CC#Cc1ccc2c(c1)[C@]1(C(=O)N2)[C@H](C(=O)NC[C@H](O)c2ccccc2)[C@H]2C(=O)O[C@H](c3ccccc3)[C@H](c3ccccc3)N2[C@@H]1c1ccc(O)cc1)C(=O)OC`
[reply] -0.165
